These measurements were taken from patent US6972319B1.

# target-system: PACAP-R3 (Homo sapiens)
# Sequence (P41587 24-438): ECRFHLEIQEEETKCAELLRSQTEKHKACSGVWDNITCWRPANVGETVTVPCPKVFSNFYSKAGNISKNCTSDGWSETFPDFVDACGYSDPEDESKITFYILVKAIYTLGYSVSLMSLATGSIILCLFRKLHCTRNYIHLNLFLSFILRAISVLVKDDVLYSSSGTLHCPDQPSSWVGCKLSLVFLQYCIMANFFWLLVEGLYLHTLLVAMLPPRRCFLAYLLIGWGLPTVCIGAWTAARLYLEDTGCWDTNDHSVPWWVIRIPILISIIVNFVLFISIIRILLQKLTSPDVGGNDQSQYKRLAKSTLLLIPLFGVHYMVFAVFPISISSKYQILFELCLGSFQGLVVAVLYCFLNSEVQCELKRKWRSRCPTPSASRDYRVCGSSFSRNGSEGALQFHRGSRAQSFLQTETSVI
# test-description: Cyclic AMP SPA on CHO cells expressing PACAP R3
# Type: cell-based
# Design: expressed in transfected cells; host or cells: CHO cells (Geneticin selection)
# cond: cAMP SPA, CHO cells transfected with PACAP-R3; concentration at which 50% of maximum PACAP27 activity is achieved; NA = no detectable activities; read-out: R3 EC50
No end group written: not given here.
Please go through the items and note down their pEC50.
Answers are plain numbers, as −log10 of the molar value.

The following substances each have a reported value; give each one's pEC50.
1. HSDAVFTDNYTRLRKQMAAKKYLNSIANKR [Peptide R3P116]
2. HSDAVFTDNYTRLRKQMAAKKYLNSIENKR [Peptide R3P119]
3. HSDGIFTDSYSRYREQMAVKKYLAAVL-NH2 [PAC15]
4. HSDAVFTDNYTRLRKQLAAKKYLNDIKKKRY [Peptide R3P36]

[9.00, 9.30, 9.70, 9.40]

Give one value of pEC50 per listed substance.
1. HSDAVFTDNYTRLRKQMAAKKYLNSIKNKT [Peptide R3P168]
2. HSDAVFTDNYTRLRKQMAAKKYLNSIFNKR [Peptide R3P120]
3. HSDAVFTDNYTRLRKQMARKKYLNSIRNRI [rR3P192]
4. HSDAVFTDNYTRLRKQMAVKKYLNSIKK [Peptide R3P41]
5. HSDAVFTDNYTRLRKQLAVKKYLNDIKNGGT [Peptide R3P29]
6. HSDAVFTDNYTRLRKQMAVKKYLNDILN [Peptide R3P48]
7. HSDGIFTDSYSRKRKQMAVKKYLAAVL-NH2 [PAC13]

9.70
9.70
9.22
10.10
9.30
9.89
9.30

Hey, can you go through the list below and give me pEC50 for every item?
1. HSDAVFTDNYTRLRKQMAAKKYLNSIRNKR [Peptide R3P128]
2. HSDAVFTDNYTRLRKQMAYKKYLNSIKNKR [Peptide R3P115]
3. HKDGIFTDSYSRYRKQMAVKKYLAAVL-NH2 [PAC2]
4. H-HSDAVFTDNYTRLRKQMAKKKYLNSIKNKR [Peptide R3P104]

[9.52, 8.22, 7.47, 9.70]

Each of the following entries comes with a recorded value; kindly state pEC50 for each.
1. HSDAVFTDNYTRLRKQMAAKKYLNSIKKKR [Peptide R3P53]
2. HSDAVFTDNYTRLRKQMARKKYLNSIKNRI [rR3P177]
3. HSDAVFTDNYTRLRKQMAAKKYLNSIKN [Peptide R3P49]
4. HSDAVFTDNYTRLRKQMAAKKYLNSIKNKE [Peptide R3P156]

1. 9.70
2. 8.80
3. 9.57
4. 9.00
